Numbers sourced from patent EP2974737A1.

ASSAY TARGET: monoclonal antibody 21-4-3
Sequence (VH, as listed by the source, form in doubt, chain 1 of 2): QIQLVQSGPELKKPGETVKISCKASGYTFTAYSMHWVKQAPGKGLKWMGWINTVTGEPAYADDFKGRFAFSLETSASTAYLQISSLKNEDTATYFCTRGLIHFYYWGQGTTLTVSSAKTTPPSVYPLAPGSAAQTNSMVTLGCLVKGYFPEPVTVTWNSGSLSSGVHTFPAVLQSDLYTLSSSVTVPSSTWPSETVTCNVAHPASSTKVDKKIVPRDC
Sequence (VL, as listed by the source, form in doubt, chain 2 of 2): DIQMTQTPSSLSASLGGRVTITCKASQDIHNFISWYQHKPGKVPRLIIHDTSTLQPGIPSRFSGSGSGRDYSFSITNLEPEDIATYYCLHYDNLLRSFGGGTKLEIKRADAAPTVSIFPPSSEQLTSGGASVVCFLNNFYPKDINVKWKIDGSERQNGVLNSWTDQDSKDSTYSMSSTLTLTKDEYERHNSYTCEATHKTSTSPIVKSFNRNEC
ASSAY INFO: SPR, captured 21-4-3, 500 nM; % of Fig. 9 reference
MEASURED ENDPOINT: binding of 21-4-3, % of Reference Sequence (%)

1. SEQ ID NO: 45 (VHH) VHH: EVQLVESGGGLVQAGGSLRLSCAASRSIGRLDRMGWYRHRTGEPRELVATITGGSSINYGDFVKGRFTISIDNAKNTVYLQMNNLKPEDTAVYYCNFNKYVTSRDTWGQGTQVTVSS
2. SEQ ID NO: 85 (VHH) VHH: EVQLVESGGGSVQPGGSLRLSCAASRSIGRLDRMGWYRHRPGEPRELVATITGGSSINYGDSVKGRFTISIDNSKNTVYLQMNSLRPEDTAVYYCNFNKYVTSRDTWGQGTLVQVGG
Problem: Given the entries 1 and 2 , determine which has the lower reported binding of 21-4-3, % of Reference Sequence. Please indicate the selected item by its label.
1
